Tested on: upland rice (Oryza sp., var.Tebonnet, RICE)
measurement.protocol: Post-emerge test, crop damage upland rice
Assay type: in vivo
experimental.parameters: post-emerge, 250 g ai/ha, 14 days after application, rating scale 0-100 (0 no damage, 100 complete death)
Please assign a class to every record based on measured Post-emerge crop damage RICE (phytotoxicity rating), with ranges low band: < 60; middle band: ≥ 60 and < 80; high band: ≥ 80

Look over these answered cases.
-- ask # bin lookup: classify Cn1nc(-c2c(F)cc3c4c2NC(=O)C(Cl)N4C(=O)CO3)c(Cl)c1OC(F)F (centres unmarked) by its Post-emerge crop damage RICE (phytotoxicity rating)
-- reply low band

-- ask Which bin, given its Post-emerge crop damage RICE (phytotoxicity rating), does CC1Oc2cc(F)c(-c3nn(C)c(C(F)(F)F)c3Cl)c3c2N(C1=O)C(C)C(=O)N3 (mixture of isomers) [1-51] occupy?
-- reply middle band

-- ask Just checking, what class would you give Cn1nc(-c2c(F)cc3c4c2NC(=O)C(c2ccccc2)N4C(=O)CO3)c(Cl)c1C(F)(F)F (centres unmarked) here?
-- reply low band

-- ask Band of "Cn1nc(-c2c(F)cc3c4c2NC(=O)CN4C(=O)C(C)(C)O3)c(Cl)c1OC(F)F" ?
-- reply low band

-- ask # bin lookup: classify CC1Oc2cc(F)c(-c3nn(C)c(C(F)(F)F)c3Cl)c3c2N(C1=O)C(C)C(=O)N3 (mixture of isomers) [1-50] by its Post-emerge crop damage RICE (phytotoxicity rating)
-- reply middle band

-- ask Using the reported Post-emerge crop damage RICE (phytotoxicity rating), which band applies to CCC1C(=O)Nc2c(-c3ncc(C(F)(F)F)cc3Cl)c(F)cc3c2N1C(=O)CO3 (centres unmarked) ?
-- reply high band

-- ask For the record Cn1nc(-c2c(F)cc3c4c2NC(=O)C(c2ccccc2)N4C(=O)CO3)c(Cl)c1OC(F)F (centres unmarked) , report the class its Post-emerge crop damage RICE (phytotoxicity rating) corresponds to.
-- reply high band

-- ask Bin? "Cn1nc(-c2c(F)cc3c4c2NC(=O)C(C)(C)N4C(=O)CO3)c(Cl)c1OC(F)F"
-- reply high band

-- ask Sort into band: CC1C(=O)N(C)c2c(-c3nn(C)c(OC(F)F)c3Cl)c(F)cc3c2N1C(=O)CO3 (centres unmarked)
-- reply middle band

-- ask Which class holds "Cn1c(C(F)(F)F)cc(=O)n(-c2c(F)cc3c4c2NC(=O)CN4C(=O)CO3)c1=O" ?
-- reply high band

***
-- ask Lab log: CCC1C(=O)Nc2c3c(cc(F)c2-n2nc(C)n(C(F)F)c2=O)OCC(=O)N31 (centres unmarked) — assign Post-emerge crop damage RICE (phytotoxicity rating) category
-- reply low band

-- ask Which Post-emerge crop damage RICE (phytotoxicity rating) band matches CC1C(=O)Nc2c(-c3ncc(C(F)(F)F)cc3Cl)c(F)cc3c2N1C(=O)CO3 (centres unmarked) ?
-- reply low band

---

Reported Pre-emerge crop damage RICE (phytotoxicity rating) is given for each of the following compounds.
Tested on: upland rice (Oryza sp., var.Tebonnet, RICE)
measurement.protocol: Pre-emerge test, crop damage upland rice
Assay type: in vivo
experimental.parameters: pre-emerge, 250 g ai/ha, 14 days after application, rating scale 0-100 (0 no damage, 100 complete death)
Protocol: A standard greenhouse herbicide activity screening system was used to evaluate the herbicidal efficacy and crop safety of these test compounds. […] At 14 days after application of the test materials, phytotoxicity ratings were recorded. […]
Answer with a number only.

Below are worked cases with known answers.
-- ask For the compound CC1Oc2cc(F)c(-c3nn(C)c(C(F)(F)F)c3Cl)c3c2N(C1=O)C(C)C(=O)N3 (mixture of isomers) [1-51] , what Pre-emerge crop damage RICE (phytotoxicity rating) is on record?
-- reply 70

-- ask Look up Pre-emerge crop damage RICE (phytotoxicity rating) for this compound: Cn1nc(-c2c(F)cc3c4c2NC(=O)C(c2ccccc2)N4C(=O)CO3)c(Cl)c1C(F)(F)F (stereo not drawn) [1-21]
-- reply 0

-- ask Which Pre-emerge crop damage RICE (phytotoxicity rating) value is on record for O=C1CN2C(=O)COc3cc(F)c(N4C(=O)C5=C(CCCC5)C4=O)c(c32)N1 [1-37] ?
-- reply 20

-- ask Endpoint output: Pre-emerge crop damage RICE (phytotoxicity rating) of CC1C(=O)Nc2c(-c3ncc(C(F)(F)F)cc3Cl)c(F)cc3c2N1C(=O)CO3 (stereo not drawn) [1-64] . Value?
-- reply 95

-- ask For Cn1nc(-c2c(F)cc3c4c2NC(=O)C(Cl)N4C(=O)CO3)c(Cl)c1OC(F)F (stereo not drawn) [1-79] , what is its reported Pre-emerge crop damage RICE (phytotoxicity rating)?
-- reply 30

New cases:
-- ask Give its Pre-emerge crop damage RICE (phytotoxicity rating) value. Item: O=C1CN2C(=O)COc3cc(F)c(-c4ncc(C(F)(F)F)cc4Cl)c(c32)N1 [1-63]
-- reply 100
